# assay: A549 lung cancer cell viability effects, profiling panel, resazurin fluorescence, 24 h, PK04 Diversity Set (AID 1171); further: test concentration not given here
# settings: higher = more signal, called active from +8 up or from −8 down
recorded.metric: z-score

{"columns": ["compound", "endpoint.result"],
 "data": [
  ["CO[C@@H]1COC(=O)[C@H](CCSC)NC(=O)CC=C[C@@H](C)COC(=O)[C@@H]2CCCN2C(=O)CC=C[C@H]1C", 0.285],
  ["COc1ccc(O[C@H]2C=C[C@@H](c3ccccc3)O[C@@H]2CON=C2c3cc(OC)ccc3O[C@H](c3cccc(OC)c3)[C@H]2O)cc1", -0.142],
  ["CCN1C(=O)[C@H]2[C@@H]3C(=CC[C@H]2C1=O)C(=O)[C@H]1O[C@H]1[C@H]3O", -1.17],
  ["CC(=O)OC[C@H]1O[C@H](C#CCC2CCCCC2)C=C[C@@H]1OC(C)=O", -0.389],
  ["O=C1CCCC=C1C(O)c1ccc([N+](=O)[O-])cc1 (stereo not given)", -0.258]
]}
